- Test system: 786-0 renal
- experiment: NCI-60 one-dose screen, 48 h (100 = growth as untreated, 0 = no growth, -100 = all killed)
- experimental.parameters: 10 µM
About 83,000 compounds went through this panel and 20% of them were active in at least one assay; those are over-represented in the sample as a whole.
measured.endpoint: growth (%)
Value expressed in %; do not type the unit.

Entry "O=S(=O)(O)c1ccc(Cl)cc1" ; assay system 786-0 renal; growth recorded at 111

Recorded growth for "O=C(COc1cccc(/C=C2\CSc3ccc(Cl)cc3C2=O)c1)c1ccc(Cl)cc1" on 786-0 renal was 94.6

Reported growth (786-0 renal) for entry "CN(C)CCCOc1cccc(NC2=C(Cl)C(=O)C(Nc3cccc(OCCCN(C)C)c3)=C(Cl)C2=O)c1" is -94.2

Test item "COc1ccc(-c2cc(-c3ccccc3)nc(SCCCC(=O)NO)n2)cc1" ; 786-0 renal; reported growth was -13.5

Considering "CN1CCN(CCC(=O)Nc2cccc(-n3cc(-c4ccncc4)c(-c4ccc(Cl)c(O)c4)n3)c2)CC1" , its growth with 786-0 renal was recorded as 32.2

growth of "CCCc1cn(CC(=O)Nc2nc3ccccc3s2)nn1" , assay on 786-0 renal, is 108

Entry CC[C@@H](C(=O)[C@@H](C)[C@@H](O)[C@H](C)[C@@H]1O[C@@H]([C@@H](CC)C(=O)O)CC[C@@H]1C)C1O[C@]2(C=CC(=O)[C@]3(CC[C@@](C)([C@H]4CC[C@](O)(CC)[C@H](C)O4)O3)O2)[C@H](C)C[C@@H]1C (stereo partly specified) , 786-0 renal data, growth value: 24.7

The molecule "COc1ccc(C(=O)c2ccccc2CN2C(=O)c3ccccc3C2=O)cc1" , when measured on 786-0 renal, yielded growth of 101

Form field growth for item "CCCc1nc(C(C)(C)O)c(C(=O)O)n1Cc1ccc(-c2ccccc2-c2nn[nH]n2)cc1" on 786-0 renal: 104

Record "COc1ccc(CCN2CCC(Nc3nc4ccccc4n3Cc3ccc(F)cc3)CC2)cc1" / 786-0 renal, growth recorded as -96.5

Simply: "O=c1cn[nH]c2ccc(Br)cc12" , 786-0 renal, growth = 99.6

For "C(=N\Nc1ncnc2sc3c(c12)CCNC3)/c1cccc2ccccc12" on 786-0 renal, measured growth was 59.5

Form: item "COc1ccc2nc3cc(Cl)ccc3c(Nc3cc(CN4CCCC4)c(O)c(CN4CCCC4)c3)c2n1" ; test system 786-0 renal; growth: 0.406

786-0 renal assay, molecule "COc1cc(-c2ccc(N=Nc3ccc4c(S(=O)(=O)O)ccc(N)c4c3O)c(OC)c2)ccc1N=Nc1ccc2c(S(=O)(=O)O)ccc(N)c2c1O" , recorded growth = 120

Log: 786-0 renal, molecule "Cc1ccc(N=Nc2ccccc2)cc1" , growth = 89.6

I looked up COc1nc2c(c(=O)n1C)CN(c1ccccc1)C(=O)C(C)N2 (stereo unspecified) and its growth for 786-0 renal was 97.5

Record for "COc1cc2cc(Oc3ccc(NC(=O)c4ccc(Cl)c(C(F)(F)F)c4)cc3)c(C)nc2cc1OC" under target or system 786-0 renal: growth reported as 32.2

Result for "CNC(=O)c1cc(Oc2ccc3c(c2)sc2nc(-c4ccc(NC(=O)Nc5ccc(Cl)c(C(F)(F)F)c5)cc4)cn23)ccn1" , tested on 786-0 renal, growth: 72.6

Form field growth for item "CC(C)C1=C(O)C2=C(C(=O)C1=O)[C@@]1(C)CCCC(C)(C)[C@@H]1CC2" on 786-0 renal: 78.7

The value of growth recorded for "COc1cc(-c2nn(-c3cccc(NC(=O)NCCNC(=O)c4ccccc4)c3)cc2-c2ccncc2)ccc1Cl" when tested on 786-0 renal reads -50.6

Entry "O=C1c2c(c3c4ccccc4n(CCCCCCN4CCOCC4)c3c3[nH]c4ccccc4c23)C(=O)N1O" under 786-0 renal had growth of 5.72

Noted growth for "CC(=O)/C(=C/c1ccc(Br)cc1)C(=O)c1ccccc1" , tested on 786-0 renal: 84.5

Assay 786-0 renal, sample "CCOC(=O)N/N=C/c1ccc(OC)c(OC)c1" , growth read: 104

Result for "c1ccc(/C(=N\Nc2ccc3ccccc3n2)c2ccccn2)cc1" , tested on 786-0 renal, growth: -35.9

Record Cc1cc(C(C#N)c2ccc(Cl)cc2)c(Cl)cc1NC(=O)c1cc(I)cc(I)c1O (stereo unspecified) ; system 786-0 renal; growth = 20.8

"CN1C(C(=O)Nc2ccccn2)=C(O)c2sc(Cl)cc2S1(=O)=O" on 786-0 renal gives growth = 104
